# Test system: SNB-19 CNS
# Experiment description: NCI tumour cell line growth inhibition, 48 h
Where a SMILES comes first, the peptide text is derived from it. The star is where a group is joined. Boc = CC(C)(C)OC(=O)*; Bz = O=C(c1ccccc1)*
Measured TGI, listed per entry for reference.

Find the recorded TGI belonging to CC(C)/C=C1\CCC(CN2CCCC2)C1=O (stereo not given) and report it.
> 64.2 µM

Find the recorded TGI belonging to `Cc1c(N2CCCC2)cc2c(c1NC(=O)c1ccccc1Cl)C(C)(C)CC2(C)C` and report it.
29.5 µM

Find the recorded TGI belonging to O=C(Nc1nnc(-c2ccccc2)o1)C(SC(=S)N1CCCCC1)c1ccccc1 (stereo not given) and report it.
> 100 µM

Find the recorded TGI belonging to CN(Cc1cnc2nc(N)nc(N)c2n1)c1ccc(C(=O)NC(CCC(=O)O)C(=O)O)cc1C(F)(F)F (stereo not given) and report it.
> 100 µM

Find the recorded TGI belonging to `O=C[C@@H](CO)O[C@H](C=O)c1c[nH]c(=O)[nH]c1=O` and report it.
813 µM

Find the recorded TGI belonging to `O=C(/C=C/c1ccc(OCCCOc2ccc(/C=C/C(=O)c3ccccc3)cc2)cc1)c1ccccc1` and report it.
> 100 µM

Find the recorded TGI belonging to `CCOC(=O)c1cnn2c1ncc1c(=O)n(NC(N)=O)ccc12` and report it.
> 100 µM

Find the recorded TGI belonging to `COc1ccc(-c2cc(-c3cc(Cl)ccc3Cl)nc3n[nH]c(N)c23)cc1` and report it.
> 100 µM

Find the recorded TGI belonging to `CS(=O)(=O)c1ccc(/C=N/NC(N)=S)cc1` and report it.
> 100 µM

Find the recorded TGI belonging to `COc1cc(C(=O)/C=C/c2c(C)n([O-])c3ccc(C)cc3[n+]2=O)cc(OC)c1OC` and report it.
46 µM

Find the recorded TGI belonging to CCNC(C)Cc1ccccc1 (stereo not given) and report it.
> 100 µM

Find the recorded TGI belonging to `N#Cc1c(N2CCCC2)nsc1NCc1ccccc1` and report it.
> 100 µM

Find the recorded TGI belonging to `NNC(=O)CSc1nc2ccc(I)cc2c(=O)n1Cc1ccccc1` and report it.
54.8 µM

Find the recorded TGI belonging to `Cc1ccc(S(=O)(=O)N2CCCN(S(=O)(=O)c3ccc(C)cc3)CCN(S(=O)(=O)c3ccc(C)cc3)CCCSCC2)cc1` and report it.
> 100 µM

Find the recorded TGI belonging to CC(NC(=O)C(Cc1ccc(OC(=O)c2ccccc2)cc1)NC(=O)OC(C)(C)C)C(=O)NC(Cc1ccccc1)C(=O)NCC(N)=O (stereo not given) (Boc-Y(Bz)AFG-NH2; configuration not given here) and report it.
36.5 µM

Find the recorded TGI belonging to `CS/C(=N\C(=S)N(C)C)N(c1ccccc1)c1nc(=[N+](C)C)ss1` and report it.
> 100 µM

Find the recorded TGI belonging to COc1ccc(C2CC(c3cc(OC)c(OC)c(OC)c3)=NO2)cc1OCCCCOc1cc2c(cc1OC)C(=O)N1CCC[C@H]1C=N2 (stereo not given in full) and report it.
4.97 µM

Find the recorded TGI belonging to CCCCCC(C)(C)CCC(=O)OC1OC(COC2OC(COC3OC(CO)C(O)C(O)C3O)C(O)C(O)C2O)C(O)C(O)C1O (stereo not given) and report it.
> 100 µM

Find the recorded TGI belonging to CC(C)(C)OC(=O)NCCCCC(N)C(N)=O (stereo not given) and report it.
> 100 µM

Find the recorded TGI belonging to C=CCN1CCC(OC(=O)C(O)(C#CC)C2CCCC2)CC1 (stereo not given) and report it.
> 100 µM
